Cited source for all entries: ChEMBL document CHEMBL3352123

target_or_system: Amyloid-beta precursor protein (Homo sapiens) (UniProt P05067)
Sequence (P05067 whole entry): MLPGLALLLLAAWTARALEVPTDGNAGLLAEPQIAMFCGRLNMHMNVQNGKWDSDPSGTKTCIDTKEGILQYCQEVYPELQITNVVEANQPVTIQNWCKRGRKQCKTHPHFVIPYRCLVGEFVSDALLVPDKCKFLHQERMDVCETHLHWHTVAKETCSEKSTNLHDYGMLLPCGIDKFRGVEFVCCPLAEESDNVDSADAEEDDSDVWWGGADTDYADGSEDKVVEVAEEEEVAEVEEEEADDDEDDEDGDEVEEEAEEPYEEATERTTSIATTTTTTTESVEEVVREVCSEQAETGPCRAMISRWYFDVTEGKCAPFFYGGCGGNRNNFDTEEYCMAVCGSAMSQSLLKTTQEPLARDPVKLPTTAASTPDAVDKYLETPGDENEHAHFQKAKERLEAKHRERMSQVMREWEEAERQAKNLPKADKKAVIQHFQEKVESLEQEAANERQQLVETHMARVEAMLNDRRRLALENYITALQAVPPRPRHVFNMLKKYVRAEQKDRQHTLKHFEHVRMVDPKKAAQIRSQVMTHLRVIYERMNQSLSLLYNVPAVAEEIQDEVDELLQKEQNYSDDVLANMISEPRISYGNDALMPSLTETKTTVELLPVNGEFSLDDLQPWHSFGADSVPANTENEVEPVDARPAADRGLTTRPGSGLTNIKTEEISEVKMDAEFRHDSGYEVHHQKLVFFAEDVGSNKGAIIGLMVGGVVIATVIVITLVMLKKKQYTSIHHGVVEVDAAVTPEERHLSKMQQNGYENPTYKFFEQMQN
procedure_details: Inhibition of amyloid beta-42 self-aggregation (unknown origin) at 25 uM after 20 hrs by ThT fluorescence assay
measure: inhibition (%)

Field: example entries. Status: answers known.
// inhibition value for O=C(/C=C/c1cc(O)c(O)c(O)c1)CC(=O)/C=C/c1ccccc1O : 73

// inhibition value for COc1cc(/C=C/C(=O)CC(=O)/C=C/c2ccc(O)c(O)c2)cc(OC)c1OC : 95

// inhibition value for O=C(/C=C/c1ccc(O)c(O)c1)CC(=O)/C=C/c1ccc(O)c(O)c1 [DIDEMETHYLCURCUMIN] : 99

// inhibition value for O=C(/C=C/c1ccc(O)cc1)CC(=O)/C=C/c1ccc(O)c(O)c1 : 89

// inhibition value for O=C(/C=C/c1ccc(O)c(O)c1)CC(=O)/C=C/c1ccccc1O : 100

[I] COc1cc(/C=C/C(=O)CC(=O)/C=C/c2ccc(O)c(OC)c2)ccc1O [CURCUMIN]
[II] Oc1ccc(/C=C/c2cc(/C=C/c3ccccc3O)[nH]n2)cc1O
[III] COc1cc(/C=C/C(=O)C(C)(C)C(=O)/C=C/c2ccc(O)c(OC)c2)ccc1O
[IV] COc1ccc(/C=C/C(=O)/C=C(O)/C=C/c2ccc(OC)c(OC)c2)cc1OC
Prompt line: Order each entry by recorded inhibition, climbing from the minimum. To answer, write out the labels according to the requested order.
Response line: IV, III, II, I
(IV: 0%, III: 30%, II: 47%, I: 80%)

* * *

procedure_details: Aqueous solubility of the compound after 12 hrs by shake-flask method
Format: physicochemical
measurement_setup: buffer
measure: solubility thermodynamic at 12 h (µM)

// solubility thermodynamic at 12 h value for O=C(/C=C/c1ccc(O)c(O)c1)CC(=O)/C=C/c1cc(O)c(O)c(O)c1 : 50

// solubility thermodynamic at 12 h value for O=C(/C=C/c1cc(O)c(O)c(O)c1)CC(=O)/C=C/c1cc(O)c(O)c(O)c1 : 6.2

// solubility thermodynamic at 12 h value for COc1cc(/C=C/C(=O)C(C)(C)C(=O)/C=C/c2ccc(O)c(OC)c2)ccc1O : 12

// solubility thermodynamic at 12 h value for O=C(/C=C/c1cccc(O)c1)CC(=O)/C=C/c1ccc(O)c(O)c1 : 6.2

// solubility thermodynamic at 12 h value for COc1ccccc1/C=C/C(=O)CC(=O)/C=C/c1ccc(O)c(O)c1 : 0.12

// solubility thermodynamic at 12 h value for Oc1ccc(/C=C/c2cc(/C=C/c3ccc(O)c(O)c3)[nH]n2)cc1O : 98

[P] O=C(/C=C/c1ccc(O)c(O)c1)CC(=O)/C=C/c1ccc(O)c(O)c1
[Q] Oc1ccc(/C=C/c2cc(/C=C/c3ccccc3O)[nH]n2)cc1O
[R] O=C(/C=C/c1ccc(O)cc1)CC(=O)/C=C/c1ccc(O)c(O)c1
[S] COc1cc(/C=C/c2cc(/C=C/c3ccc(O)c(OC)c3)[nH]n2)ccc1O
[T] COc1c(O)cc(/C=C/C(=O)CC(=O)/C=C/c2ccc(O)c(O)c2)cc1O
Prompt line: Order each entry by recorded solubility thermodynamic at 12 h, climbing from the minimum. To answer, write out the labels according to the requested order.
Response line: R, S, P, T, Q

[I] COc1cccc(/C=C/C(=O)CC(=O)/C=C/c2ccc(O)c(O)c2)c1
[II] O=C(/C=C/c1cc(O)c(O)c(O)c1)CC(=O)/C=C/c1ccccc1O
Prompt line: Quick check, higher solubility thermodynamic at 12 h between I and II ? Please respond with the label that marks your chosen entry.
Response line: II
(II: 47 µM, I: 0.11 µM)

[I] O=C(/C=C/c1ccc(O)c(O)c1)CC(=O)/C=C/c1ccccc1O
[II] COc1cc(/C=C/C(=O)CC(=O)/C=C/c2ccc(O)c(OC)c2)ccc1O
Prompt line: Which value of solubility thermodynamic at 12 h is smaller, the one for I or the one for II ? Please respond with the label that marks your chosen entry.
Response line: II
(II: 0.19 µM, I: 31 µM)

[1] Oc1cccc(/C=C/c2cc(/C=C/c3ccc(O)c(O)c3)n[nH]2)c1
[2] COc1ccc(/C=C/C(=O)CC(=O)/C=C/c2ccc(O)c(O)c2)cc1
Prompt line: Which value of solubility thermodynamic at 12 h is smaller, the one for 1 or the one for 2 ? Please respond with the label that marks your chosen entry.
Response line: 2
(2: 0.009 µM, 1: 10 µM)
